Below, each entry is listed alongside its reported β-galactosidase activity.
# system: FvTox1 in the pLexA vector (LexA fusion) (Fusarium virguliforme)
# assay.text: two-hybrid; LexA two-hybrid system, yeast EGY48 [pSH18-34]; FvTox1 in pLexA, peptides in pB42AD; reporters LacZ and LEU2; quantitative β-galactosidase activity (Miller units), three biological replications

>  <binder>
synthetic FvTox1-interacting fusion peptide 7 in pB42AD (no flanking cysteines) (designed binder) GSGGGGSGGGGSGGGGSSYLPETIYEYRLGGGGSELGGGGSGGGGSGGGGSVENKTRYHDREVGGGGSLEGGGGSGGGGSGGGGSHEGAWHNYARSVGGGGS

>  <β-galactosidase activity (Miller units)>
6.12

$$$$
>  <binder>
GGGGSGGGGSGGGGSSYLPETIYEYRLGGGGS [synthetic FvTox1-interacting peptide 1 in pB42AD (no flanking cysteines)]

>  <β-galactosidase activity (Miller units)>
6.59

$$$$
>  <binder>
GGGGSGGGGSGGGGSSNGRVADGGGGS [synthetic FvTox1-interacting peptide 4 in pB42AD (no flanking cysteines)]

>  <β-galactosidase activity (Miller units)>
6.45

$$$$

This collection of values is drawn from paper PMC4692527.
